# TESTED SYSTEM: T1, Human CD40 on cells (Raji, Daudi, IM-9) (human, UniProt P25942 21-277)
# T1 construct: whole, on cells; also called cell surface CD40; hCD40
# T1 sequence (P25942 21-277): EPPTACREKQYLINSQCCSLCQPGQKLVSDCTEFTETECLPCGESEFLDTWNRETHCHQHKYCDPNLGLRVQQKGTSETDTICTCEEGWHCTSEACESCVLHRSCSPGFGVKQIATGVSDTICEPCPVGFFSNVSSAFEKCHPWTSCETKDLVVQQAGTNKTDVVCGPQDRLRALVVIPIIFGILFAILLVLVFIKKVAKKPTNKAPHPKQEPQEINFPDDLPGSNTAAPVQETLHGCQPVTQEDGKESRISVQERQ
# MEASUREMENT NOTES: flow cytometry on Raji cells, anti-Myc staining (axis Myc); number not labelled as MFI on the sheet; 2nd Ab only -30.7
For each entry below, report its MFI value.
# print the numeric value only

Please list MFI recorded for the binder 2B1-Cκ-Myc (2B1-Cκ linked with C-terminal Myc peptide) (scFv, also called 2B1-Ck-Myc; Myc peptide-tagged anti-hCD40 adaptor) scFv: QAALTQPSSVSANPGETVKITCSGGDSYAGSYYYGWFQQKAPGSAPVTVIYYNDKRPSDIPSRFSGSTSGSTSTLTITGVQAEDEAVYYCGSIDTSSGTGIFGAGTTLTVLGQSSRSSGGGGSSGGGGSAVTLDESGGGLQTPGGALSLVCKGSGFTFSSYQMFWVRQAPGKGLEYVAEISGSGLSTWYAPAVKGRATISRDNGQSTVRLQLNNLRAEDTGTYYCAKAAGSCGVGTCAGGIVDGIDAWGHGTEVIVSSTSGQAGQRTVAAPSVFIFPPSDEQLKSGTASVVCLLNNFYPREAKVQWKVDNALQSGNSQESVTEQDSKDSTYSLSSTLTLSKADYEKHKVYACEVTHQGLSSPVTKSFNRGESEQKLISEEDL
1860

Please list MFI recorded for the binder 2B1-Ck-L2-Myc (scFv) scFv: QAALTQPSSVSANPGETVKITCSGGDSYAGSYYYGWFQQKAPGSAPVTVIYYNDKRPSDIPSRFSGSTSGSTSTLTITGVQAEDEAVYYCGSIDTSSGTGIFGAGTTLTVLGQSSRSSGGGGSSGGGGSAVTLDESGGGLQTPGGALSLVCKGSGFTFSSYQMFWVRQAPGKGLEYVAEISGSGLSTWYAPAVKGRATISRDNGQSTVRLQLNNLRAEDTGTYYCAKAAGSCGVGTCAGGIVDGIDAWGHGTEVIVSSTSGQAGQRTVAAPSVFIFPPSDEQLKSGTASVVCLLNNFYPREAKVQWKVDNALQSGNSQESVTEQDSKDSTYSLSSTLTLSKADYEKHKVYACEVTHQGLSSPVTKSFNRGESGGGGSGGGSEQKLISEEDL
2070

Please list MFI recorded for the binder 2B1-L1-Myc-Ck (scFv) scFv: QAALTQPSSVSANPGETVKITCSGGDSYAGSYYYGWFQQKAPGSAPVTVIYYNDKRPSDIPSRFSGSTSGSTSTLTITGVQAEDEAVYYCGSIDTSSGTGIFGAGTTLTVLGQSSRSSGGGGSSGGGGSAVTLDESGGGLQTPGGALSLVCKGSGFTFSSYQMFWVRQAPGKGLEYVAEISGSGLSTWYAPAVKGRATISRDNGQSTVRLQLNNLRAEDTGTYYCAKAAGSCGVGTCAGGIVDGIDAWGHGTEVIVSSTSGQAGQGGGGSEQKLISEEDLRTVAAPSVFIFPPSDEQLKSGTASVVCLLNNFYPREAKVQWKVDNALQSGNSQESVTEQDSKDSTYSLSSTLTLSKADYEKHKVYACEVTHQGLSLPVTKSFNRGES
2400
